- protocol summary: Half life in mouse liver microsomes by HPLC analysis in presence of NADPH
- Format: ADME
Answer each item with its documented log10(half-life).
Recorded half-life (log10, min)

Sample answers from the record:
- COC1=CC(=O)C[C@@H](C)[C@]12Oc1c(Cl)c(OC)cc(OC)c1C2=O: 1.57
- COc1cc(OC)c2c(c1Cl)O[C@]1(C2=O)C(OCc2ccccc2)=C/C(=N\OCC(=O)O)C[C@H]1C: 2.53
- COc1cc(OC(F)F)c(Cl)c2c1C(=O)[C@@]1(O2)C(OCc2ccccc2)=CC(=O)C[C@H]1C: 1.49
- COc1cc(OC)c2c(c1Cl)O[C@]1(C2=O)C(OCc2ccccc2)=C/C(=N\O)C[C@H]1C: 1.65
- COc1cc(OC)c2c(c1Cl)O[C@]1(C2=O)C(OCc2ccccc2)=CC(=O)C[C@H]1C: 1.43

Consider the additional molecule presented here.
Q: Which log10(half-life) is reported for this molecule? `COc1cc(OC(F)F)c2c(c1Cl)O[C@]1(C2=O)C(OCc2ccccc2)=CC(=O)C[C@H]1C`
Ans: 1.04

Data provenance: ChEMBL document CHEMBL3792375
